Reference for the values: patent US9029508

Biological target: T1, VEGF (human, UniProt P15692)
T1 chain: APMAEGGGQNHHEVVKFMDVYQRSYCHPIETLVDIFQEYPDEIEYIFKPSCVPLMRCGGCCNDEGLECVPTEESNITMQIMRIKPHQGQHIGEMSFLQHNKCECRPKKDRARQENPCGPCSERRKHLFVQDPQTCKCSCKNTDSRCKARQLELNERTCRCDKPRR
Test: ELISA
pEC50: −log10 of the molar value.
experimental_endpoint: pEC50

{"binder": "DVD445 VEGF arm (antibody, V domains shown) VH: EVQLVESGGGLVQPGGSLRLSCAASGFTINASWIHWVRQAPGKGLEWVGAIYPYSGYTNYADSVKGRFTISADTSKNTAYLQMNSLRAEDTAVYYCARWGHSTSPWAMDYWGQGTLVTVSS VL: DIQMTQSPSSLSASVGDRVTITCRASQVIRRSLAWYQQKPGKAPKLLIYAASNLASGVPSRFSGSGSGTDFTLTISSLQPEDFATYYCQQSNTSPLTFGQGTKVEIKR", "experimental_endpoint": "pEC50", "recorded_number": 4.84}
{"binder": "DVD452 VEGF arm (antibody, V domains shown) VH: EVQLVESGGGLVQPGGSLRLSCAASGFTINASWIHWVRQAPGKGLEWVGAIYPYSGYTNYADSVKGRFTISADTSKNTAYLQMNSLRAEDTAVYYCARWGHSTSPWAMDYWGQGTLVTVSS VL: DIQMTQSPSSLSASVGDRVTITCRASQVIRRSLAWYQQKPGKAPKLLIYAASNLASGVPSRFSGSGSGTDFTLTISSLQPEDFATYYCQQSNTSPLTFGQGTKVEIKR", "experimental_endpoint": "pEC50", "recorded_number": 7.75}
{"binder": "DVD474 VEGF arm (antibody, V domains shown) VH: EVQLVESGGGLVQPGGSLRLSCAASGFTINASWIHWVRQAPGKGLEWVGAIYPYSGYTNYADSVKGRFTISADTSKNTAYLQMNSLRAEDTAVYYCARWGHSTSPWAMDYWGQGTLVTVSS VL: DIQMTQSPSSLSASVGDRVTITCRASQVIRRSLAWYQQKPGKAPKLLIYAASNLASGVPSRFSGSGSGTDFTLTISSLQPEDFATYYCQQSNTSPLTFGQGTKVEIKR", "experimental_endpoint": "pEC50", "recorded_number": 7.75}
